// provenance: the supplement of paper PMC9233669

Readings of self-aminoacylation for the listed sequences
- Test system: biotinyl-Met-oxazolone
- assay protocol: self-aminoacylation, catalytic enhancement (BMO) (fold over background); higher = more active; k-Seq, kA / k0A0; sequences stand for … in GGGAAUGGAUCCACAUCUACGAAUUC…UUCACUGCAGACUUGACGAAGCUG
Fewer inactive variants are shown than the library holds.

Solved entries:
>>> result("AAGUUUGCUAAUAGCGGCAAG [Fam3.1 aminoacylation ribozyme variant]")
0.508
>>> result("GUACUUCAAACAUUCGGUCUG [Fam1A.1 aminoacylation ribozyme variant]")
1.6
>>> result("AUUCACCUAGGGCAUCGGGUA [Fam2.2 aminoacylation ribozyme variant]")
3.25

Q: For the sequence shown here, CUACUUCAAACAAUCGGACUU [Fam1A.1 aminoacylation ribozyme variant] , give the reported self-aminoacylation.
A: 0.737

Q: For the sequence shown here, AAGUUUGCUCAUAGGCGCAAG [Fam3.1 aminoacylation ribozyme variant] , give the reported self-aminoacylation.
A: 0.839

---

- System: biotinyl-Trp-oxazolone
- assay protocol: self-aminoacylation, catalytic enhancement (BWO) (fold over background); higher = more active; k-Seq, kA / k0A0; sequences stand for … in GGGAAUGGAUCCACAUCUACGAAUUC…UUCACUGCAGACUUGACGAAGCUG
This sample holds only a part of the variants without activity.
Assign class by self-aminoacylation: not lower than 6 means satisfied; lower than 6 means not satisfied.

>>> classification("UUACUUCAAAAAAUCGGUCUG [Fam1A.1 aminoacylation ribozyme variant]")
"not satisfied"
>>> classification("AUUCAACCAGGUCAUCGGGUG [Fam2.2 aminoacylation ribozyme variant]")
"satisfied"
>>> classification("AUUACCCUUGUCACCGAGUGA [Fam2.1 aminoacylation ribozyme variant]")
"satisfied"
>>> classification("AUUCACCUAGGUCAUCGUGUG [Fam2.2 aminoacylation ribozyme variant]")
"not satisfied"
>>> classification("ACGUUUGCGAAUAGUCGCAAG [Fam3.1 aminoacylation ribozyme variant]")
"not satisfied"

Q: Please indicate if the recorded self-aminoacylation for AUUCACCUAGGUCAUCAGUUG [Fam2.2 aminoacylation ribozyme variant] meets or exceeds 6.
A: not satisfied

Q: Please indicate if the recorded self-aminoacylation for CCACACUUCAACCUAUCGGUC [Fam1B.1 aminoacylation ribozyme variant] meets or exceeds 6.
A: not satisfied

---

- System: biotinyl-Trp-oxazolone
- assay protocol: self-aminoacylation, catalytic enhancement (BWO) (fold over background); higher = more active; k-Seq, kA / k0A0; sequences stand for … in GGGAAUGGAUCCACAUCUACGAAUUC…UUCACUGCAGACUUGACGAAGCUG
Variants at the floor of the assay were thinned out.
readout name: self-aminoacylation
Kindly provide the number alone.

Solved entries:
>>> quantitative_result("AUUCAACUAGGUUAUCGGGUG [Fam2.2 aminoacylation ribozyme variant]")
3.46
>>> quantitative_result("GUUACCCUGGUCUUCGAGUGA [Fam2.1 aminoacylation ribozyme variant]")
10.1
>>> quantitative_result("CAAAUUCAAACAAUCGGUCUG [Fam1A.1 aminoacylation ribozyme variant]")
3.94

Q: For the sequence shown here, AUUACCCUUGUCAUCGAGCGA [Fam2.1 aminoacylation ribozyme variant] , give the reported self-aminoacylation.
A: 0.631

Q: For the sequence shown here, AUUCACCUAGGUAUUCGGGUG [Fam2.2 aminoacylation ribozyme variant] , give the reported self-aminoacylation.
A: 3.35

Q: For the sequence shown here, CCACACUGCAAGCAAUCGAUC [Fam1B.1 aminoacylation ribozyme variant] , give the reported self-aminoacylation.
A: 0.727

Q: For the sequence shown here, CUACUUCAAAAAAUCGGUCCG [Fam1A.1 aminoacylation ribozyme variant] , give the reported self-aminoacylation.
A: 1.31

Q: For the sequence shown here, AAUUCUGCUAAUAGUCGCAAG [Fam3.1 aminoacylation ribozyme variant] , give the reported self-aminoacylation.
A: 4.46

Q: For the sequence shown here, AUUCAUCCAGGUCAUCGGGUG [Fam2.2 aminoacylation ribozyme variant] , give the reported self-aminoacylation.
A: 6.96

Q: For the sequence shown here, GUUCACCUAGGACAUCGGGUG [Fam2.2 aminoacylation ribozyme variant] , give the reported self-aminoacylation.
A: 5.67

Q: For the sequence shown here, CCACACUUCAGGUAAUCGGUC [Fam1B.1 aminoacylation ribozyme variant] , give the reported self-aminoacylation.
A: 0.712

Q: For the sequence shown here, CUACUUCAAACACGCGGUCUG [Fam1A.1 aminoacylation ribozyme variant] , give the reported self-aminoacylation.
A: 1.74

Q: For the sequence shown here, CCGCACUCCAAGCAAUCGGUC [Fam1B.1 aminoacylation ribozyme variant] , give the reported self-aminoacylation.
A: 5.87

Q: For the sequence shown here, CCCCACUUCAAGCACUCGGUC [Fam1B.1 aminoacylation ribozyme variant] , give the reported self-aminoacylation.
A: 4.4

Q: For the sequence shown here, AUUCGCCUACGUCAUCGGGUG [Fam2.2 aminoacylation ribozyme variant] , give the reported self-aminoacylation.
A: 4.12

Q: For the sequence shown here, GUUACCCUGCUCAUCGAGUGA [Fam2.1 aminoacylation ribozyme variant] , give the reported self-aminoacylation.
A: 3.45

Q: For the sequence shown here, AAGUUUGCUAAUAGCGGCAAG [Fam3.1 aminoacylation ribozyme variant] , give the reported self-aminoacylation.
A: 0.924
